I'd be grateful if you could share measured cAMP EC50 for these entries.
Target: T1, P1R-DelNt (truncated human P1R deleted for residues 24-181) (human, UniProt Q03431 182-593)
T1 sequence (looked up): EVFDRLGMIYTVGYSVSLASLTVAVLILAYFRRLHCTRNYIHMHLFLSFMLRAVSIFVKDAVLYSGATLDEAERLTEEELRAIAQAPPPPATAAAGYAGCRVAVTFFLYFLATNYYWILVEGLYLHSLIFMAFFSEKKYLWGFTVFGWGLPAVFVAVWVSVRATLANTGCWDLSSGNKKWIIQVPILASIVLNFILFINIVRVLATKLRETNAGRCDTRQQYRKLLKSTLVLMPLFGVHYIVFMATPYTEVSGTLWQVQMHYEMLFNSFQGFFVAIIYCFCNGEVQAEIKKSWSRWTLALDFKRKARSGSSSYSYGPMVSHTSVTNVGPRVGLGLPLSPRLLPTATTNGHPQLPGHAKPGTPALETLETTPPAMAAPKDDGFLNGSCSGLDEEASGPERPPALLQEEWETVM
Test: cell-based or functional assay
Non-standard residues stand in square brackets, D forms with d. No end group written: not given here. hArg = N=C(N)NCCCC[C@H](N)C(=O)O; Aib = CC(C)(N)C(=O)O
Could you give me the number in µM? Just the number is fine.

cAMP EC50 in this record for [Aib]V[Aib]EIALMHA[hArg]AKW-NH2 (N-terminus assumed; SMILES CC[C@H](C)[C@H](NC(=O)[C@H](CCC(=O)O)NC(=O)C(C)(C)NC(=O)[C@@H](NC(=O)C(C)(C)N)C(C)C)C(=O)N[C@@H](C)C(=O)N[C@@H](CC(C)C)C(=O)N[C@@H](CCSC)C(=O)N[C@@H](Cc1c[nH]cn1)C(=O)N[C@@H](C)C(=O)N[C@@H](CCCCNC(=N)N)C(=O)N[C@@H](C)C(=O)N[C@@H](CCCCN)C(=O)N[C@@H](Cc1c[nH]c2ccccc12)C(N)=O) [[Aib^1,3, Ala^6,10]PTH(1-14)] : 0.024

cAMP EC50 in this record for AVAEIQLMHAR-NH2 [[Ala^10]PTH(1-11)] : 39
